- Tested on: A/Netherlands/602/09 (NL09)
- Format: cell-based, influenza A virus
Property: relative infectivity, NL09 (%)
Write the value in % as a bare number.

>>> df
                           structure_smiles                       system                    property  assay_value
0  CNC(=O)c1cc(Oc2ccc(NC(=O)Nc3ccc(Cl)c(C(F)(F)F)c3)c(F)c2)ccn1  A/Netherlands/602/09 (NL09)  relative infectivity, NL09           75
1  CC(C)(C)c1nc(-c2cccc(NS(=O)(=O)c3c(F)cccc3F)c2F)c(-c2ccnc(N)n2)s1  A/Netherlands/602/09 (NL09)  relative infectivity, NL09          117
2  CCOc1cc2ncc(C#N)c(Nc3ccc(OCc4ccccn4)c(Cl)c3)c2cc1NC(=O)/C=C/CN(C)C  A/Netherlands/602/09 (NL09)  relative infectivity, NL09           70
3  Cn1cc(-c2cc3c(N4CCN(c5ncc([C@@](C)(N)c6ccc(F)cc6)cn5)CC4)ncnn3c2)cn1  A/Netherlands/602/09 (NL09)  relative infectivity, NL09           80
4  Cc1cc(Nc2ncnc3ccc(NC4=NC(C)(C)CO4)cc23)ccc1Oc1ccn2ncnc2c1  A/Netherlands/602/09 (NL09)  relative infectivity, NL09           86

# evaluate next
Reported relative infectivity, NL09 of O=C(Nc1cnn2ccc(N3CCC[C@@H]3c3cc(F)ccc3F)nc12)N1CC[C@H](O)C1 : 60

###

Each record here notes measured reduction in viral titers.
- Test system: NL09 and NL11 strains
- Type: cell-based, influenza A virus

Sample answers from the record:
>>> df
                           structure_smiles        assay_value
0  CCOc1cc2ncc(C#N)c(Nc3ccc(OCc4ccccn4)c(Cl)c3)c2cc1NC(=O)/C=C/CN(C)C     40- to 50 fold
1  CN(C)C/C=C/C(=O)Nc1cc2c(Nc3ccc(F)c(Cl)c3)ncnc2cc1O[C@H]1CCOC1  100- to 3000 fold
2  CNC(=O)c1cc(Oc2ccc(NC(=O)Nc3ccc(Cl)c(C(F)(F)F)c3)c(F)c2)ccn1   10- to 1000 fold

# evaluate next
Reported reduction in viral titers of CC(C)(C)c1nc(-c2cccc(NS(=O)(=O)c3c(F)cccc3F)c2F)c(-c2ccnc(N)n2)s1 : 10- to 100 fold

Entry source: paper PMC9504178
